biological target: T1, mouse vascular endothelial growth factor receptor-2 Fc chimera (Flk-1-Fc) (mouse, UniProt P35918 20-762); test: clones from the 159Q(8)L library; binding per FIG. 4
T1 construct: Purchased from R&D Systems; also called mouse VEGF-R2; not shown: Fc part of the purchased chimera
T1 sequence (P35918 20-762, change not shown): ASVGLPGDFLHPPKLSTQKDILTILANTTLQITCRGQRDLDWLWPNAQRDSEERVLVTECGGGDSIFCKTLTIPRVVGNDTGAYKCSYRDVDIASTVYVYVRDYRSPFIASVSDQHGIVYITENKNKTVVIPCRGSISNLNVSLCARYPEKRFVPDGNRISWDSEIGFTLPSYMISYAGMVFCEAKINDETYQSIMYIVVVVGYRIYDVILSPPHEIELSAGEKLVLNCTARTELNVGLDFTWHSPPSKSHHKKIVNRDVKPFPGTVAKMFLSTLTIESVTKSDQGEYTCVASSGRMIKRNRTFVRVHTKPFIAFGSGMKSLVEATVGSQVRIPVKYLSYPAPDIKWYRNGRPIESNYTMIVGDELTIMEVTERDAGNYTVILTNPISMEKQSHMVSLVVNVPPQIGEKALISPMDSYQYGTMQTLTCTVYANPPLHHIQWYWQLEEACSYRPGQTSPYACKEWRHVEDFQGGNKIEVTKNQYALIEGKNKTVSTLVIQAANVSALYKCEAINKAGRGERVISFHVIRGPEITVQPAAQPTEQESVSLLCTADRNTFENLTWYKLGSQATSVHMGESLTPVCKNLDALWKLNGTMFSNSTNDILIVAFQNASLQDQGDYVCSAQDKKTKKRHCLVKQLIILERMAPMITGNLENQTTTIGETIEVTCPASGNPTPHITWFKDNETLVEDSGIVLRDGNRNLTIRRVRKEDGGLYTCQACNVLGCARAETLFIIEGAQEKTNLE
endpoint: binding result

INSERT INTO results (binder, reading) VALUES
  ('M1 (designed binder, 10Fn3 clone with WT N-terminus; Tags not included) VSDVPRDLEVVAATPTSLLISWRHPHFPTRYYRITYGETGGNSPVQEFTVPLQPTVATISGLKPGVDYTITGYAVTLERNDRELFTPISINYRT', 'binds'),
  ('M6 (designed binder, 10Fn3 clone with WT N-terminus; Tags not included) VSDVPRDLEVVAATPTSLLISWRHPHFPTHYYRITYGETGGNSPVQEFTVPLQPPAATISGLKPGVDYTITGYAVTLERDGRELFTPISINYRT', 'binds'),
  ('M7 (designed binder, 10Fn3 clone with WT N-terminus; Tags not included) VSDVPRDLEVVAATPTSLLISWRHPHFPTRYYRITYGETGGNSPVQEFTVPLQPTTATISGLKPGVDYTITGYAVTWERNGRELFTPISINYRT', 'binds');
